Values from PubChem BioAssay AID1963863

Here the recorded viability, T/C is given for each entry.
# System: 931267-113-T-J1-PDC KRAS spheroid with HUVEC/MSC, viability;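 further: compound exposure lasted 7 days before the readout; 100% = DMSO vehicle control viability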
# run description: Anticancer human tumor 931267-113-T-J1-PDC patient-derived colon adenocarcinoma cell line growth inhibition [KRAS2]
# condition context: second compound 0.316 µM; first compound 0.01 µM; active compounds read low
recorded endpoint: viability, T/C

[[record]]
compound = "CC(C)n1nc(-c2ccc3oc(N)nc3c2)c2c(N)ncnc21 + C=CC(=O)N1CCN(c2nc(OCC3CCCN3C)nc3c2CCN(c2cccc4cccc(C)c24)C3)CC1CC#N"
system_under_test = "931267-113-T-J1-PDC KRAS spheroid with HUVEC/MSC, viability"
recorded_endpoint = "viability, T/C"
measured = "44.6%"

[[record]]
compound = "CN(C)C/C=C/C(=O)Nc1cc2c(Nc3ccc(F)c(Cl)c3)ncnc2cc1O[C@H]1CCOC1 + CC1OCC2(CCN(c3cnc(Sc4ccnc(N)c4Cl)c(N)n3)CC2)C1N"
system_under_test = "931267-113-T-J1-PDC KRAS spheroid with HUVEC/MSC, viability"
recorded_endpoint = "viability, T/C"
measured = "62.6%"

[[record]]
compound = "Cn1ncnc1[C@H]1c2n[nH]c(=O)c3cc(F)cc(c23)N[C@@H]1c1ccc(F)cc1 + COc1cc2nc(C)nc(NC(C)c3cc(N)cc(C(F)(F)F)c3)c2cc1OC1CCOC1"
system_under_test = "931267-113-T-J1-PDC KRAS spheroid with HUVEC/MSC, viability"
recorded_endpoint = "viability, T/C"
measured = "96.3%"

